Every entry's value here was drawn from patent US10723741B1.

Listed compounds paired with reported MIC
System: Enterococcus faecium ATCC 700221 (VRE)
test method notes: Broth microdilution MIC, E. faecium ATCC 700221 (VRE)
Format: cell-based
condition info: Enterococcus faecium; broth microdilution, 37° C., 20 hours; read-out: MIC E. faecium ATCC 700221 (VRE)
Record the value in µg/mL, omitting the unit from your answer.

Look over these answered cases.
CN(C)CC1CN(CCn2ncc3nc(NCc4ccc(Cl)c(Cl)c4)[nH]c(=O)c32)CCO1.Cl.Cl (centres unmarked) | 8
O=c1[nH]c(NCc2ccc(Cl)c(Cl)c2)nc2cnn(C[C@@H]3CO[C@H](CO)CO3)c12 | 4
COC(=O)CCn1cc2nc(NCc3ccc(Cl)c(Cl)c3)[nH]c(=O)c2n1 | 16
COC(=O)CCn1ncc2nc(NCc3ccc(Cl)c(Cl)c3)[nH]c(=O)c21 | 2
Cl.Cl.O=c1[nH]c(NCc2ccc(Cl)c(Cl)c2)nc2cnn(C3CCN(CC4CCCNC4)CC3)c12 (centres unmarked) | 16
O=C(c1cccnc1)N1CCC(n2nc(F)c3nc(NCc4ccc(Cl)c(Cl)c4)[nH]c(=O)c32)CC1 | 2

# evaluate next
Problem: State, for Enterococcus faecium ATCC 700221 (VRE), measured MIC of the compound listed here: O=c1[nH]c(NCc2ccc(Cl)c(Cl)c2)nc2cnn(-c3ccncc3)c12
Result: 2
